target: Serine/threonine-protein phosphatase PP1-alpha catalytic subunit (Homo sapiens) (UniProt P62136); assay: PP1-alpha phosphatase inhibitors, primary screen, counter-screen for PP5 inhibitor project, biochemical, fluorescence, OMFP substrate, single point (AID 2235); conditions: purified PP1alpha, at 6.7 µM, hits give high values
Sequence (P62136 whole entry, looked up): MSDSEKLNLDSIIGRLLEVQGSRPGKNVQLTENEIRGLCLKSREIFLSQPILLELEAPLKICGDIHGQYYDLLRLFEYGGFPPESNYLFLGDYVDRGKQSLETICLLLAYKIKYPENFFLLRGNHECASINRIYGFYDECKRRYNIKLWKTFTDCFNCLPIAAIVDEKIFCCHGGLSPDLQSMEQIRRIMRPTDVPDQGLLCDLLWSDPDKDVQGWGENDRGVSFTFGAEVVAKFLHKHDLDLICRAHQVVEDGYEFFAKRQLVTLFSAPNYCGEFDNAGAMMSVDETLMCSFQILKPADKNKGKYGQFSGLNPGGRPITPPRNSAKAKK
Hit rate of the full screen: of about 320,000 compounds, about 2,800 (0.88%) were called active. For the sample, actives were picked, then their nearest neighbours and some compounds at random.
EXPERIMENTAL ENDPOINT: inhibition (%)
Numeric only. Scale: %

Notebook: CNC(=O)Nc1ccc(C(O)(C(=O)OC)C(F)(F)F)cc1 (stereo unspecified) , inhibition read as 1.95

Notebook: CC(C)Nc1nc(Cl)nc(NC(C)C)n1 , inhibition read as -5.49

Notebook: O=C(O)c1ccccc1NC(=O)C1C2CCC(O2)C1C(=O)O (stereo unspecified) , inhibition read as 33.1

Notebook: CC(=O)Nc1ccc(C(=O)C(Cc2ccccc2)N(C)C)cc1 (stereo unspecified) , inhibition read as -0.99

Notebook: CCOP(=O)(OCC)C(O)c1ccc(OC)cc1OC (stereo unspecified) , inhibition read as 47.2

Notebook: O=c1[nH]c(CN2CC=C(c3ccccc3)CC2)nc2scc(-c3cccs3)c12 , inhibition read as 18.9
